Biological target: T1, N-terminal coupled CGGGEDVGSNKGAIIGLMVGG (22-38) ovalbumin conjugate (coupled by the N-terminus to ovalbumin)
T1 peptide: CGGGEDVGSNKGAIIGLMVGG
Test: FMAT bead immunoassay, culture supernatant
test-readout: binding result

Example entries and their recorded answers appear below.
binder	reported
2C1 mouse monoclonal antibody (antibody, V domains shown, Mouse hybridoma antibody) VH: EVQLQQSGAELVKPGASVKLSCTGSGFNIKVYYVHWLKQLTEQGLEWIGRIDPENGETIYAPKFQDKATLTVDTSSNTAYLQLSSLTSEDTAVYYCVSSGYWGQGTTLTVSS VL: DIVMTQSAFSNPVTLGTSASISCRSSKSLLHRNGITYLYWYLQKPGQSPQLLIYQMSNLASGVPDRFTSSGSGTDFTLKISRVEAEDVGVYYCAQNLELWTFGGGTKLEIK	binds
2E11 mouse monoclonal antibody (antibody, V domains shown, Mouse hybridoma antibody) VH: EVQLQQSGAEVVKPGASVKLSCTASGFNIKVYYIHWLKQLTEQGLEWIGRIDPENGETKYVPKFQGKATLTVDTSSNTAYLHLSSLTSEDTGVYYCVTSGYWGQGTTLTVSS VL: DIVMTQAAFSNPVALGTSASISCRSSKSLLHSNGITYLYWYLQKPGQSPQLLIYQMSNLASGVPDRFSSSGSGTDFTLRISRVEAEDVGVYYCAQNLELWTFGGGTKLEIK	binds
16D4 mouse monoclonal antibody (antibody, V domains shown, Mouse hybridoma antibody) VH: EVQLQQSGAELVKPGASVKLSCTASGFNIKDYYMHWLKQLTEQGLEWIGRIDPENGETQYAPKFQGKASLTADTSSNTAYLHLSSLTSEDTAVYYCVSSGYWGQGTTLTVSS VL: DIVMTQAAFSNPVTLGTSASISCRSSKSLLHSNGITYLYWYLQKPGQSPQLLIYQMSNLASGVPDRFSSSGSGTDFTLRISRVEAEDVGVYYCAQNLELWTFGGGTKLEIK	binds
5D1 mouse monoclonal antibody (antibody, V domains shown, Mouse hybridoma antibody) VH: EVQLQQSGAELVKPGASVKLSCTGSGFNIKVYYVHWLKQLTEQGLEWIGRIDPENGETKYAPKFQDKATLTVDTSSNTAYLHLSSLTSEDTAVYYCVSSGYWGQGTTLTVSS VL: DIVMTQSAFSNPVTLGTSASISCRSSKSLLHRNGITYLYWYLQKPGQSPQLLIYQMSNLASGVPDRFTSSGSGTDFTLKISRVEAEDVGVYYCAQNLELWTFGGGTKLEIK	binds

Please examine the following record next.
Query: For the binder 14B3 mouse monoclonal antibody (antibody, V domains shown, Mouse hybridoma antibody) VH: EVQLQQSGAELVEPGASVKLSCTGSGFNIKVYYVHWLKQLTEQGLEWIGRIDPENGETLYTPKFQGKATFTVDTSSNTAYLQLSSLTSEDTAVYYCVSSGYWGQGTTLTVSS VL: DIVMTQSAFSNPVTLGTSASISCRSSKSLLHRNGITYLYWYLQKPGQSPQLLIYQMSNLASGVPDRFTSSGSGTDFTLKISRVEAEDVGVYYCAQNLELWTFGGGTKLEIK , what binding result is on record?
Reply: binds
